Assay: Intrinsic cytotoxicity against wild type mouse NIH/3T3 cells at 3 uM after 72 hrs by MTT assay
Details: wild type NIH/3T3 cells
OBSERVED_PROPERTY: cytotoxicity at 72 h, 3 µM

Param item = O[C@@H](COc1cccc2ncccc12)CN1CCN([C@@H]2c3ccccc3[C@@H]3[C@H](c4ccccc42)C3(F)F)CC1 ; retrieve measured cytotoxicity at 72 h, 3 µM. 2.4%

----------
Assay: Intrinsic cytotoxicity against wild type mouse NIH/3T3 cells after 72 hrs by MTT assay
Type: cell-based
Conditions: NIH3T3, 72 h
OBSERVED_PROPERTY: IC50 (nM)
Write the number in nM without appending the unit.

Suppose we examine the compound COc1cccc2c1C(=O)c1c(O)c3c(c(O)c1C2=O)C[C@@](O)(C(C)=O)C[C@@H]3O[C@H]1C[C@H](N)[C@H](O)[C@H](C)O1 [DAUNORUBICIN] ; what IC50 value has been reported? 44
